Cited source: ChEMBL document CHEMBL3885861

# Organism: Rattus norvegicus
# testDescription: Open TG-GATES - Regimen: Single
# Format: toxicity, organism-based, Sprague-Dawley
# Parameters: regimen Single, gender Male, age 6 weeks
# recordedConditions: in vivo, po, 0 mg/kg, 3 h, tissue Blood, route gavage, dose level Control
observable: Bas

Recorded Bas, per entry:
S=C=Nc1cccc2ccccc12 [1-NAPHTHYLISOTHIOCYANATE]    0%
Cn1cnc([N+](=O)[O-])c1Sc1ncnc2nc[nH]c12    0%
O=C1NC(=O)C(c2ccccc2)(c2ccccc2)N1    0.4%
Cc1cccc(Nc2cc(Cl)nc(SCC(=O)O)n2)c1C    0%
COc1ccc(O)c(C(C)(C)C)c1.COc1ccc(O)cc1C(C)(C)C [BUTYLATED HYDROXYANISOLE]    0.2%

Attention now shifts to the item below.
Please give the measured Bas for this compound: O=C1CN(/N=C/c2ccc(-c3ccc([N+](=O)[O-])cc3)o2)C(O)=N1
0%

###

# Organism: Rattus norvegicus
# testDescription: Open TG-GATES - Regimen: Daily Repeat
# Type: toxicity, organism-based, Sprague-Dawley
# Parameters: regimen Daily Repeat, gender Male, age 6 weeks
# recordedConditions: in vivo, po, 0 mg/kg, […], tissue Blood, route gavage, dose level Control, time 7 day
In this section we review reported MCH values for a set of compounds.
Field format: number, assumed pg, no unit text.

COc1ccc(Cl)cc1C(=O)NCCc1ccc(S(=O)(=O)NC(=O)NC2CCCCC2)cc1 [GLYBURIDE]    21.2
Cn1c(=O)c2c(ncn2C)n(C)c1=O    21.2
COc1ccc(O)c(C(C)(C)C)c1.COc1ccc(O)cc1C(C)(C)C [BUTYLATED HYDROXYANISOLE]    20.8

Request the reported MCH associated with O=P1(N(CCCl)CCCl)NCCCO1 (centres undefined) [CYCLOPHOSPHAMIDE ANHYDROUS]
20.7

###

# Species: Rattus norvegicus
# testDescription: Open TG-GATES - Regimen: Single
# Type: toxicity, organism-based, Sprague-Dawley
# Design: regimen Single, gender Male, age 6 weeks
# recordedConditions: in vivo, po, 0 mg/kg, 3 h, tissue Blood, route gavage, dose level Control
observable: MCHC
Please answer using the number first and the unit second.

Example results:
O=C1CN(/N=C/c2ccc(-c3ccc([N+](=O)[O-])cc3)o2)C(O)=N1    34.6%
CS(=O)(=O)Nc1ccc([N+](=O)[O-])cc1Oc1ccccc1 [NIMESULIDE]    34.3%
S=C=Nc1cccc2ccccc12 [1-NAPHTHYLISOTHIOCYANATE]    36.2%
Cn1cnc([N+](=O)[O-])c1Sc1ncnc2nc[nH]c12    34%
COc1ccc(O)c(C(C)(C)C)c1.COc1ccc(O)cc1C(C)(C)C [BUTYLATED HYDROXYANISOLE]    34%

Now, please, on to the next compound.
Returns the measured MCHC for the input compound. Input: O=C1NC(=O)C(c2ccccc2)(c2ccccc2)N1
33.3%

###

# Organism: Rattus norvegicus
# testDescription: Open TG-GATES - Regimen: Daily Repeat
# Format: toxicity, organism-based, Sprague-Dawley
# Set-up: regimen Daily Repeat, gender Male, age 6 weeks
# recordedConditions: in vivo, po, 0 mg/kg, 72 h, tissue Blood, route gavage, dose level Control, time 3 day
Define the label as t when WBC is strictly less than 90 x10_2/uL and as f in all remaining cases.

Please review the following examples before continuing.
C=CCO    f
COc1ccc(Cl)cc1C(=O)NCCc1ccc(S(=O)(=O)NC(=O)NC2CCCCC2)cc1 [GLYBURIDE]    t

Check if WBC falls below 90 x10_2/uL for Cn1c(=O)c2c(ncn2C)n(C)c1=O .
t

Does the reported WBC of the following molecule sit strictly below 90 x10_2/uL? CS(=O)(=O)Nc1ccc([N+](=O)[O-])cc1Oc1ccccc1 [NIMESULIDE]
f

Just wondering, is WBC of O=C1CN(/N=C/c2ccc(-c3ccc([N+](=O)[O-])cc3)o2)C(O)=N1 below 90 x10_2/uL?
f

Is the reported WBC for Cc1cccc(Nc2cc(Cl)nc(SCC(=O)O)n2)c1C strictly below 90 x10_2/uL?
t

Please state whether WBC is below 90 x10_2/uL for O=P1(N(CCCl)CCCl)NCCCO1 (stereo not given) [CYCLOPHOSPHAMIDE ANHYDROUS]
t

Is WBC of O=C1NC(=O)C(c2ccccc2)(c2ccccc2)N1 strictly below 90 x10_2/uL?
t
